biological target: DQA1*0101:DQB1*0501 (Homo sapiens, UniProt P01909+P01920, A157S/A45G/A70V/C70R/D89V/E106S/E118A/E183D/E77G/F83G/G63E/H151Q/H199R/H252R/H253Q/I129T/I235V/I88M/INS77G/K197Q/L107V/L117V/L119Y/L178F/L71W/L74F/L85Q/L91A/L98M/M46L/N214S/P87R/Q116E/Q256R/Q57E/Q76K/R102G/R240Q/R75S/R78G/S102Y/S185I/S41F/S97I/T103A/T109R/T121G/T122I/T172A/T86R/V148I/V68A/V73E/Y34C/Y58G/Y62H); construct: purchased ProImmune (REVEAL technology); type: binding
Sequence (P01909 with tags, fused parts or gaps with the stated changes, other chains not shown): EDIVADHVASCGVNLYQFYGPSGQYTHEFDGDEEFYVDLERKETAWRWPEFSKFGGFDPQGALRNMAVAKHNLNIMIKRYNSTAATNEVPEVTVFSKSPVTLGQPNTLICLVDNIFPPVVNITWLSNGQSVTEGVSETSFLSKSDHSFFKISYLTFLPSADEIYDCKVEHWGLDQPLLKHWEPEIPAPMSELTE
OBSERVATION_TYPE: Stability index

INSERT INTO measurements (construct_sequence, observation_type, observed_result) VALUES
  ('AMERNAGSGIIISDT [compound 16]', 'Stability index', 0.1),
  ('MNLPSTKVSWAAVTL (listed as Homo sapiens) [compound 10, Orexin DQB1*0602 fragment]', 'Stability index', 0.1),
  ('RELILYDKEEMRRIWRQANNG [compound 2]', 'Stability index', 1.1),
  ('LILYDKEERRRRWRQ [compound 9]', 'Stability index', 2.9),
  ('LTVAAWSVKTSPLNM [compound 13]', 'Stability index', 0.4),
  ('ASGNHAAGILTMGRR (listed as Homo sapiens) [compound 15, Orexin fragment HCRT87-99]', 'Stability index', 0.1),
  ('LILYDKEEIRRIWRQ [Peptide #3]', 'Stability index', 0.6),
  ('ALSRGFGSGIITSNA [compound 18]', 'Stability index', 0.0),
  ('IDPFKLLQNSQVVSL [compound 8]', 'Stability index', 0.0),
  ('GAGNHAAGILTLGKR (listed as Homo sapiens) [compound 14, Orexin fragment HCRT56-68]', 'Stability index', 0.0),
  ('MNLPSIKVSWAAVTL [compound 11]', 'Stability index', 1.4),
  ('SGAAGAAVKGVGTMV [compound 6]', 'Stability index', 0.0),
  ('MNLPSMKVSWAAVTL [compound 12]', 'Stability index', 0.4),
  ('LILYDKEEMRRIWRQ [compound 4]', 'Stability index', 0.1);
